Assay: In vitro laser induced phototherapy, cell viability
Type: cell-based
Conditions: mouse, SCC7 cells, PB 80 μg/ml, ICG 10 μg/ml, read-out: cell viability without laser treatment
measured property: viability at 24 h, 10 μg/ml

Value of measured viability at 24 h, 10 μg/ml for the entry CC1(C)C(/C=C/C=C/C=C/C=C2\N(CCCCS(=O)(=O)O)c3ccc4ccccc4c3C2(C)C)=[N+](CCCCS(=O)(=O)[O-])c2ccc3ccccc3c21 [free ICG, Indocyanine green] : ~100%
